// reported IC50 per item
# Test system: breast adenocarcinoma (MCF-7)
# Test name: MTT cytotoxicity assay, MCF-7
# Cond: Homo sapiens, MCF7, read-out: IC50 MCF-7
Assay endpoint: IC50

>>> df
                                   molecule  assay_endpoint   result
0  CC(=NNC(=O)CN1C(=O)NC(c2ccccc2)(c2ccccc2)C1=O)c1ccccn1            IC50  32.4 µM
1  CC(=NNC(=O)CN1C(=O)NC(c2ccccc2)(c2ccccc2)C1=O)c1cccc2ccccc12            IC50  28.1 µM
2  COc1cc(C(C)=NNC(=O)CN2C(=O)NC(c3ccccc3)(c3ccccc3)C2=O)cc(OC)c1OC            IC50    26 µM
3  CC(=NNC(=O)CN1C(=O)NC(c2ccccc2)(c2ccccc2)C1=O)c1ccc2ccccc2c1            IC50  4.92 µM
4  CC(=NNC(=O)CN1C(=O)NC(c2ccccc2)(c2ccccc2)C1=O)c1ccc(Cl)s1            IC50  19.7 µM
5  CC(=NNC(=O)CN1C(=O)NC(c2ccccc2)(c2ccccc2)C1=O)c1ccncc1            IC50  13.1 µM
6  CC(=NNC(=O)CN1C(=O)NC(c2ccccc2)(c2ccccc2)C1=O)c1ccc(OC(F)(F)F)cc1            IC50  9.58 µM
7  COc1ccccc1C(C)=NNC(=O)CN1C(=O)NC(c2ccccc2)(c2ccccc2)C1=O            IC50  59.1 µM
8  CC(=NNC(=O)CN1C(=O)NC(c2ccccc2)(c2ccccc2)C1=O)c1ccc(C(F)(F)F)cc1            IC50  45.8 µM
9  CC(=NNC(=O)CN1C(=O)NC(c2ccccc2)(c2ccccc2)C1=O)c1ccc(Cl)cc1            IC50  11.2 µM

====

# Tested on: WI-38 normal fibroblast cell line
# Test name: MTT cytotoxicity against normal human cells
# Assay type: cell-based
# Cond: Homo sapiens; normal fibroblast WI-38; read-out: IC50 WI-38
Assay endpoint: IC50 (µM)

In [3]: df
Out[3]:
                                   molecule  readout_units  readout_number
0  CC(=NNC(=O)CN1C(=O)NC(c2ccccc2)(c2ccccc2)C1=O)c1ccc(Cl)cc1 [Compound 10]             µM            54.2
1  CC(=NNC(=O)CN1C(=O)NC(c2ccccc2)(c2ccccc2)C1=O)c1ccc2ccccc2c1 [Compound 24]             µM            39.5
2  CC(=NNC(=O)CN1C(=O)NC(c2ccccc2)(c2ccccc2)C1=O)c1cccnc1 [Compound 21]             µM            60.8
3  COc1cc(C(C)=NNC(=O)CN2C(=O)NC(c3ccccc3)(c3ccccc3)C2=O)cc(OC)c1OC [Compound 18]             µM            60.8
4  CC(=NNC(=O)CN1C(=O)NC(c2ccccc2)(c2ccccc2)C1=O)c1ccc(OC(F)(F)F)cc1 [Compound 13]             µM            45.4

====

# Test system: breast adenocarcinoma (MCF-7)
# Test name: MTT cytotoxicity assay, MCF-7
# Cond: Homo sapiens, MCF7, read-out: IC50 MCF-7
Rule: IC50 below 20 µM gives fulfilled, anything at or above gives not fulfilled.

                                   compound                    measured_on          label
0  COc1cccc(C(C)=NNC(=O)CN2C(=O)NC(c3ccccc3)(c3ccccc3)C2=O)c1 [Compound 15]  breast adenocarcinoma (MCF-7)  not fulfilled
1  C#Cc1cccc(Nc2ncnc3cc(OCCOC)c(OCCOC)cc23)c1 [Erlotinib, reference compound]  breast adenocarcinoma (MCF-7)      fulfilled
2  COc1ccc(C(C)=NNC(=O)CN2C(=O)NC(c3ccccc3)(c3ccccc3)C2=O)cc1OC [Compound 17]  breast adenocarcinoma (MCF-7)      fulfilled
3  CC(=NNC(=O)CN1C(=O)NC(c2ccccc2)(c2ccccc2)C1=O)c1cccnc1 [Compound 21]  breast adenocarcinoma (MCF-7)      fulfilled
4  CC(=NNC(=O)CN1C(=O)NC(c2ccccc2)(c2ccccc2)C1=O)c1ccccc1 [Compound 7]  breast adenocarcinoma (MCF-7)  not fulfilled
5  CC(=NNC(=O)CN1C(=O)NC(c2ccccc2)(c2ccccc2)C1=O)c1ccc(F)cc1 [Compound 11]  breast adenocarcinoma (MCF-7)      fulfilled
6  CC(=NNC(=O)CN1C(=O)NC(c2ccccc2)(c2ccccc2)C1=O)c1ccc(C)cc1 [Compound 9]  breast adenocarcinoma (MCF-7)  not fulfilled

====

# Measured on: EGFR (Homo sapiens)
# Construct: purchased BPS Bioscience 40321
# Sequence (P00533 25-1210): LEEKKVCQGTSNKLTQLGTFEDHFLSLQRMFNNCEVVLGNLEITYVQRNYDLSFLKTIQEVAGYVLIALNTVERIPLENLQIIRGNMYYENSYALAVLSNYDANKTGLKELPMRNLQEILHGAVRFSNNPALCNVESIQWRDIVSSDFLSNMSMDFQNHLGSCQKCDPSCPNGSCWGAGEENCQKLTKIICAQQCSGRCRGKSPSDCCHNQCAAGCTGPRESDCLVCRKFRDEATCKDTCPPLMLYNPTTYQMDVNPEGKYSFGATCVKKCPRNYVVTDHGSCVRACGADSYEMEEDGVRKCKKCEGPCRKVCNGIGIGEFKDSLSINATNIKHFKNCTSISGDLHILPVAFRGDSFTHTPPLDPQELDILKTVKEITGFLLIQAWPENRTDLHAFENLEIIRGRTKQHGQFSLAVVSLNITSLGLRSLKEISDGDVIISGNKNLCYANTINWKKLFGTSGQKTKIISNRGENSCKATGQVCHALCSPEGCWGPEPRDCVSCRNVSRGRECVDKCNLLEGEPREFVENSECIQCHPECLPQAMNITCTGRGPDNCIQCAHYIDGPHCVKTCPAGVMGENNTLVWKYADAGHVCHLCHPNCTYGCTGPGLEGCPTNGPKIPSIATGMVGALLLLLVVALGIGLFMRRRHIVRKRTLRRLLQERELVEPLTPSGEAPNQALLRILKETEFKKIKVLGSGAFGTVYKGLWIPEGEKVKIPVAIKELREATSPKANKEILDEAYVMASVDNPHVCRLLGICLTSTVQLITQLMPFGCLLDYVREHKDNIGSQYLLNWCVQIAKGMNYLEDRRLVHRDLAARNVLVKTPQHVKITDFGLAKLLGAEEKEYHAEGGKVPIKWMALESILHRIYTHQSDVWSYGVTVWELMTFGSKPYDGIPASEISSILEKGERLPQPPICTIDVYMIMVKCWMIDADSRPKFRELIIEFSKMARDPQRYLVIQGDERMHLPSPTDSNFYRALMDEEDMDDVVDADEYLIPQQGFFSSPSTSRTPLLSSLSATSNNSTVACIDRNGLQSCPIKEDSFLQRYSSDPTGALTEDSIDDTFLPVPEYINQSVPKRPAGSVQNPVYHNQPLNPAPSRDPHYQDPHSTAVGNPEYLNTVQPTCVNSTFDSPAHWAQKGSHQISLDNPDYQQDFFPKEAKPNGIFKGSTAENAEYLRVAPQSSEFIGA
# Test name: In vitro luminescent EGFR tyrosine kinase assay (Kinase-Glo Max)
# Type: biochemical
# Cond: read-out: Kinase Inhibition IC50 EGFR
Assay endpoint: IC50 (nM)

In [3]: df
Out[3]:
                                   molecule  readout_number
0  CC(=NNC(=O)CN1C(=O)NC(c2ccccc2)(c2ccccc2)C1=O)c1ccc(OC(F)(F)F)cc1             610
1  CC(=NNC(=O)CN1C(=O)NC(c2ccccc2)(c2ccccc2)C1=O)c1ccc(Cl)cc1             670
2  CC(=NNC(=O)CN1C(=O)NC(c2ccccc2)(c2ccccc2)C1=O)c1ccc2ccccc2c1              70
3  CC(=NNC(=O)CN1C(=O)NC(c2ccccc2)(c2ccccc2)C1=O)c1cccnc1            1610

====

// reported pIC50 per item
# Measured on: HER2 (Homo sapiens)
# Sequence (P04626 23-1255): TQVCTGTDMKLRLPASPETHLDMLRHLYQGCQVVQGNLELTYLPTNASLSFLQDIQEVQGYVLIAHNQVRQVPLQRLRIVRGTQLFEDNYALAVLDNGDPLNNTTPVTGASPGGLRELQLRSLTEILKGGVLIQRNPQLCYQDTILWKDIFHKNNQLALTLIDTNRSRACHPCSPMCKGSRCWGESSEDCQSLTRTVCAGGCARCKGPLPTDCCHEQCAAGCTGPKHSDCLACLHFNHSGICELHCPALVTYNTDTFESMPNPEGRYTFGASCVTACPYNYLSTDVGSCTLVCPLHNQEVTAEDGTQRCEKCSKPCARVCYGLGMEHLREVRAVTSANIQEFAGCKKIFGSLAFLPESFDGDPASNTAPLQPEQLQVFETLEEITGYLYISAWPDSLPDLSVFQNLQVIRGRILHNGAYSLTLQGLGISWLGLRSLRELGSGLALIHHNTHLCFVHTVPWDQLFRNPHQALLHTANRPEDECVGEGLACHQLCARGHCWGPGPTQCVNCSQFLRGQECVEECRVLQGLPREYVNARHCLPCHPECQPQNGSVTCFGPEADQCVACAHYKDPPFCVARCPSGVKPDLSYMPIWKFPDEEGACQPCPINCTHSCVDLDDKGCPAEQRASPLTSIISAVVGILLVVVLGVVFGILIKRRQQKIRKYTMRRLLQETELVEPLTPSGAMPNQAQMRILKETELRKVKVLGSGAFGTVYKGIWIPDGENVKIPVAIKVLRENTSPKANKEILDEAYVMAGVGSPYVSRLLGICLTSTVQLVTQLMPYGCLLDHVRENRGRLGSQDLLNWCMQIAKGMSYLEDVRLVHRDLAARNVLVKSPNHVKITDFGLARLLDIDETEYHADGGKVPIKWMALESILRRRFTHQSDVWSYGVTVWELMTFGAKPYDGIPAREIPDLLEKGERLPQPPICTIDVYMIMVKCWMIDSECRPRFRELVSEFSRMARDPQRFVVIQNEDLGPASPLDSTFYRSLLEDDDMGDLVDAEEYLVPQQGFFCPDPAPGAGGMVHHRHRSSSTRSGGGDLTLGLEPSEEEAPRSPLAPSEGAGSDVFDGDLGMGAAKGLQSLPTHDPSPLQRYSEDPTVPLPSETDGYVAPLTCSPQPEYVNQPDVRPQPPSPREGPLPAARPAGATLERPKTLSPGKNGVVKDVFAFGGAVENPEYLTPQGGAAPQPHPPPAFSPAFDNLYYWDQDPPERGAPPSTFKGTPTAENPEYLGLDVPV
pIC50: −log10 of the molar value.
Assay endpoint: pIC50

In [3]: df
Out[3]:
                                   molecule          measured_on  readout_number
0  CC(=NNC(=O)CN1C(=O)NC(c2ccccc2)(c2ccccc2)C1=O)c1ccc(OC(F)(F)F)cc1  HER2 (Homo sapiens)            6.55
1  CC(=NNC(=O)CN1C(=O)NC(c2ccccc2)(c2ccccc2)C1=O)c1ccc2ccccc2c1  HER2 (Homo sapiens)            7.40

Ref: paper PMC12030650
